test: Cytotoxicity against HEL cells assessed as alteration in cell morphology after 3 days; assay type: cell-based; settings: human
Result Type: MCC at 72 h (µM)
A number alone suffices; assume µM.

CCOC(=O)NC(=O)NC1=CS(=O)(=O)O[C@@]12[C@@H](CO[Si](C)(C)C(C)(C)C)O[C@@H](n1cc(C)c(=O)n(C)c1=O)[C@@H]2O[Si](C)(C)C(C)(C)C
10

input: Give its MCC at 72 h value. Item: `Cc1cn([C@@H]2O[C@H](CO[Si](C)(C)C(C)(C)C)[C@@]3(OS(=O)(=O)C=C3NC(=O)NCc3ccccc3)[C@H]2O[Si](C)(C)C(C)(C)C)c(=O)n(C)c1=O`
output: 4

input: Give its MCC at 72 h value. Item: `Cc1cn([C@@H]2O[C@H](CO[Si](C)(C)C(C)(C)C)[C@@]3(OS(=O)(=O)C=C3NC(N)=O)[C@H]2O[Si](C)(C)C(C)(C)C)c(=O)n(C)c1=O`
output: 16

input: Give its MCC at 72 h value. Item: `Cc1cn([C@@H]2O[C@H](CO[Si](C)(C)C(C)(C)C)[C@@]3(OS(=O)(=O)C=C3NC(=O)Nc3ccccc3)[C@H]2O[Si](C)(C)C(C)(C)C)c(=O)n(C)c1=O`
output: 1.4

Entry source: ChEMBL document CHEMBL1140035
